Below, each entry is listed alongside its reported Fold change (Median).
System: GSC7 cells
Assay: Nano-Glo Dual-Luciferase Reporter (Nanoglo DLR) assay of enhancer activity, fold change to mCMV
Type: cell-based, human
Details: expression fold change of the individual enhancer compared to mCMV
Note to self: number, then unit, no commentary.

Answered cases to consult:
molecule	Fold change (Median)
ID1322: enhancer fragment, SEQ ID NO: 27 (nucleic acid) DNA: GGGCAACAAAGGATGCCATGCAAAGCAGCTCAGAACTTGAGTTGTTTCAACAGATGCTGTTTTATGTTTTGCCAAAGAATGGCCCCTTTTATTTCTGTCATGAATGCAGTCTTTCTTTCAGTTTCTAAATGTTTGCCAGTATTAACCCTAATCCTTATCT	26.7 fold
CSE061: clustered SOX dimer motif enhancer, SEQ ID NO: 48 (nucleic acid) DNA: GAACAGCACTTAAATATTAATAGCATCACTGGGAAAACACGACAGCTATTTCCCTGTTTTCTGCAGCTCAATGAAGAGTTGTTCAGTGCAGACCCCAGTGCTCTTGCCTCATGAATGGACGTGATTGTGGGGACATCATCTCCTACTAAGGCAAAACGTGACACTGAGAACAAAGGCTGGTTTTTAGCCTGATGTGATGAGCTCACCCCAGTGCCCATGTGGGGACTTTGAAGCTCGTCCAGGTGCCAGTTTTCTGTGTATATGACATTCTTGGTTGGGGAGGGTGTGGACTGGGCAGCAGGCTTT	58.3 fold
ID1667: enhancer fragment, SEQ ID NO: 30 (nucleic acid) DNA: ACCCTTTGCAGAGAGGAAAGAGAAAGGAGGTCTCCTGTTGGGGAGATCTGCTTTAGAGGTTAGGAAGAATGGTGGAGTTGTAAGACATTGGAATCACTGTCTAGGAAGGACAGTGGCCTTTTATCCAGGGCTATTTAAAAACAGACAGAGCTTCATCTAT	25.2 fold
ID1176: enhancer fragment, SEQ ID NO: 22 (nucleic acid) DNA: ACAAACTAAACACAGACATTTTCTCAATTAGTCATTTTCAGGTTTATTGCCTAAGATGCTAATTGAAATTCAGGGCAGGCAAAAATACATCATTGGCCTTTGTATATCTTTGAAAGGCCTTCTGATGGGACCTTGCTCCGTATAAAGGCTTCTCTTCTCT	31.3 fold
ID0885: enhancer fragment, SEQ ID NO: 14 (nucleic acid) DNA: CAGCAAAGGCTGCACGCAATGGGGGAGGGGGAAGGAGGGAAGGATATTTCCTCCTTTTTAGATCAGTTTCTTTTCTGAGCACAAGTGCTTTCTGTGTCATCCTAACAATGTAAGAGCCCACTAAGTTTAGGACGCATAATACCGGCCTTTGTTCTACTCC	42.6 fold
ID4328: enhancer fragment, SEQ ID NO: 7 (nucleic acid) DNA: TACAATCTATTCTCCATAGTCATCAGAGTTTCTTTAAAGGCACGGTTCAGACAATGGCACCCTCTGTTCCAAACCCTCCAGGGCTTCCTATTTCACTTAGCATAAAAACCAAAGTCCTCACAATGACCGACAAGTCTTCACACAATGTGCCCCTTCATTG	100.7 fold

Problem: Supply Fold change (Median) value. Item: ID2904: enhancer fragment, SEQ ID NO: 5 (nucleic acid) DNA: TGCATGTTCTTGGGAAAAAGTGGTATTTAATGAAGGCGCTTTGAGCTGAATCAAAGAGCCTCATTCTTCTGAAAGTCCTTCTTCCTAGTCTCTGCATCCGGCTCCTATCAAAGGAAATCCACAGCTTTGGCTTTTCGTTGCTGTTGTCATGGAAATCGTT
Solution: 251.6 fold
